# METHOD NOTES: recombinant barcode read abundance after kanamycin selection (control-corrected) (log10(CPM+1)); higher = more efficient recombination; sequences stand for … in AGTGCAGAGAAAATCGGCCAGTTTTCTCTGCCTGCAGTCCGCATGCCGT…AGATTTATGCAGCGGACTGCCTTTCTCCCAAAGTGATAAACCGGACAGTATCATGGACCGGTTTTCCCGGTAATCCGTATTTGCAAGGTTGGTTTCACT; site = the 11-nt target;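 note: IS621 recombinase and bridge RNA in Escherichia coli cells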
This section presents sequences with their documented recombinant barcode read abundance (log10) values.
READOUT KIND: recombinant barcode read abundance (log10)

# ORDERED RESIDUES, VALUE MEASURED
records = [
    ("ATCCGCTCTTGGGTTCTAACCTGTTGCCT (site TTCCGCTCTAG)", 0.771),
    ("TACTGGGCTTGGGTTCTAACCTGTTGCTG (site TACTGGGCTCC)", 0.0895),
    ("GTTACGGCTTGGGTTCTAACCTGTTGCCT (site GTTTCGGCTAG)", 0),
    ("ACAATGACTTGGGTTCTAACCTGTTGCCT (site ACAGTGACTAG)", 0.132),
    ("CAACTAGCTTGGGTTCTAACCTGTTGCAT (site TTGTACACTGA)", 0.028),
    ("CTAGGAGCTTGGGTTCTAACCTGTTGCTG (site CTAGGAGCTGA)", 0.169),
    ("TCCGAAGCTTGGGTTCTAACCTGTTGCTA (site TCCCAAGCTTA)", 0.264),
    ("GCTTTACCTTGGGTTCTAACCTGTTGCTT (site GCTTTACCTAA)", 0.368),
    ("AAACCACCTTGGGTTCTAACCTGTTGCCT (site AGACCACCTAG)", 0.276),
    ("GATGCCACTTGGGTTCTAACCTGTTGCCT (site GATGCCACTAG)", 1.53),
]

---

# METHOD NOTES: recombinant barcode read abundance after kanamycin selection (control-corrected) (log10(CPM+1)); higher = more efficient recombination; sequences stand for … in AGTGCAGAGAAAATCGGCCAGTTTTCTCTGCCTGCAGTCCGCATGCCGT…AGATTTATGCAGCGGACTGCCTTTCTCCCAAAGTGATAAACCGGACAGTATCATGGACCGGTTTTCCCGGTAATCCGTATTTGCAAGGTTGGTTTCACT; site = the 11-nt target
Class assignment keyed on recombinant barcode read abundance (log10), ranges low band: < 0.1; middle band: ≥ 0.1 and < 0.4; high band: ≥ 0.4

# ORDERED RESIDUES, CLASS NAME
rows = [
    ("ACAAAGACTTGGGTTCTAACCTGTTGCGC (site ACATAGACTGC)", "middle band"),
    ("CTTGGAACTTGGGTTCTAACCTGTTGCCT (site CTTGGAGCTAG)", "low band"),
    ("TCTCAGCCTTGGGTTCTAACCTGTTGCCT (site TCTCGGCCTAG)", "middle band"),
    ("ACCAAGACTTGGGTTCTAACCTGTTGCCG (site ACCAAGACTCG)", "middle band"),
    ("AGTACAACTTGGGTTCTAACCTGTTGCCT (site AGTACAACTAG)", "middle band"),
    ("GAGCGGACTTGGGTTCTAACCTGTTGCTA (site GAGCGGACTTA)", "high band"),
    ("TATTATACTTGGGTTCTAACCTGTTGCCT (site TATTATACTAC)", "low band"),
    ("GATCGAGCTTGGGTTCTAACCTGTTGCAG (site GATCGAGCTCT)", "high band"),
    ("GTATTTCCTTGGGTTCTAACCTGTTGCTT (site GTATTTCCTAA)", "high band"),
    ("CCTAACACTTGGGTTCTAACCTGTTGCCT (site ACTAACACTAG)", "low band"),
    ("CGGAATCCTTGGGTTCTAACCTGTTGCCT (site CGGAATCCTAG)", "high band"),
    ("AGCCTTACTTGGGTTCTAACCTGTTGCCT (site ATCCTTACTAG)", "middle band"),
    ("TAAGGCCCTTGGGTTCTAACCTGTTGCTT (site TCAGGCCCTAG)", "middle band"),
    ("TATTCTCCTTGGGTTCTAACCTGTTGCTT (site TATTCTCCTAA)", "middle band"),
    ("TGGCTGTCTTGGGTTCTAACCTGTTGCCT (site TGGCTGTCTAG)", "high band"),
    ("GCTCAGGCTTGGGTTCTAACCTGTTGCCT (site GCTCAGGCTAG)", "middle band"),
    ("GAGTGAGCTTGGGTTCTAACCTGTTGCAT (site GAGCGAGCTAT)", "high band"),
    ("GCCCGAACTTGGGTTCTAACCTGTTGCCT (site GCCCGAACTAG)", "high band"),
    ("GGCACTGCTTGGGTTCTAACCTGTTGCCT (site GGCACAGCTAG)", "middle band"),
    ("TACATCCCTTGGGTTCTAACCTGTTGCCT (site TACATCCCTTG)", "low band"),
    ("ATGGGCCCTTGGGTTCTAACCTGTTGCTC (site ATGGGCCCTGA)", "high band"),
    ("CGGACGGCTTGGGTTCTAACCTGTTGCCT (site CGGACGACTAG)", "middle band"),
    ("TTACGTGCTTGGGTTCTAACCTGTTGCGG (site TTACGAGCTCC)", "middle band"),
    ("GGCTTGTCTTGGGTTCTAACCTGTTGCCT (site GGCATGTCTAG)", "low band"),
    ("GACAGGCCTTGGGTTCTAACCTGTTGCCT (site GACAGGCCTAG)", "high band"),
    ("AAATCCTCTTGGGTTCTAACCTGTTGCCT (site AAATCCTCTAG)", "high band"),
    ("CTGGGCCCTTGGGTTCTAACCTGTTGCCT (site CTGAGCCCTAG)", "middle band"),
    ("CAGAGGTCTTGGGTTCTAACCTGTTGCCT (site CAGAGCTCTAG)", "low band"),
    ("CCTGTATCTTGGGTTCTAACCTGTTGCCT (site CCTGTATCTAG)", "middle band"),
    ("TTCTTACCTTGGGTTCTAACCTGTTGCCT (site TACTTACCTAG)", "low band"),
    ("GTATGAACTTGGGTTCTAACCTGTTGCCT (site GTATGACCTAG)", "middle band"),
    ("ATGCCCACTTGGGTTCTAACCTGTTGCCT (site ATGCCGACTAG)", "low band"),
    ("CACATCACTTGGGTTCTAACCTGTTGCCT (site CACAACACTAG)", "middle band"),
    ("TAGTGCTCTTGGGTTCTAACCTGTTGCCC (site TAGTGCTCTCG)", "high band"),
    ("TGTAATTCTTGGGTTCTAACCTGTTGCCT (site TGTAATTCTAG)", "middle band"),
    ("AGGGCGCCTTGGGTTCTAACCTGTTGCCT (site ATGGCGCCTAG)", "middle band"),
    ("GCTTTGACTTGGGTTCTAACCTGTTGCCT (site GCTTTGACTAG)", "high band"),
    ("GGTCATCCTTGGGTTCTAACCTGTTGCCT (site GGTCATTCTAG)", "low band"),
    ("GTTAGAGCTTGGGTTCTAACCTGTTGCCT (site GTTTGAGCTAG)", "middle band"),
    ("AGGAGCCCTTGGGTTCTAACCTGTTGCTA (site AGGAGCCCTCA)", "middle band"),
    ("CGGAATCCTTGGGTTCTAACCTGTTGCCT (site CGGAATCCTAC)", "low band"),
    ("TCGGATGCTTGGGTTCTAACCTGTTGCAT (site GTTTCGACTTA)", "middle band"),
]

Data provenance: the supplement of paper PMC11208160
